Settings: in ethanol, 293.2 K
reported-metric: solubility (mole fraction)
Returns: the value as a bare number; no unit string appended.

### Prompt Would you mind telling me what solubility (mole fraction) value was observed for "Cn1c([N+](=O)[O-])cnc1N1CCN(S(C)(=O)=O)C1=O" ?
### Response 0.000378

---

Conditions: in n-propanol, 303.2 K
reported-metric: solubility (mole fraction)
Returns: the value as a bare number; no unit string appended.

### Prompt Would you mind telling me what solubility (mole fraction) value was observed for "Cn1c([N+](=O)[O-])cnc1N1CCN(S(C)(=O)=O)C1=O" ?
### Response 0.000541

---

Details: in DMSO, 303.2 K
reported-metric: solubility (mole fraction)

### Prompt Would you mind telling me what solubility (mole fraction) value was observed for "Cn1c([N+](=O)[O-])cnc1N1CCN(S(C)(=O)=O)C1=O" ?
### Response 0.085

This collection of values is drawn from BigSolDB 2.1.
